- Organism: Homo sapiens
- protocolNotes: Selectivity ratio of Ki for human recombinant adenosine A2A receptor to Ki for human recombinant adenosine A3 receptor
endpointLabel: Ratio Ki

[a] CNC(=O)[C@H]1O[C@@H](n2cnc3c(NC)nc(C#Cc4ccccn4)nc32)[C@H](O)[C@@H]1O
[b] CNC(=O)[C@H]1O[C@@H](n2cnc3c(NC)nc(C#Cc4ccc(F)cc4)nc32)[C@H](O)[C@@H]1O
[c] CNC(=O)[C@H]1O[C@@H](n2cnc3c(NOC)nc(C#Cc4ccccn4)nc32)[C@H](O)[C@@H]1O
[d] CNC(=O)[C@H]1O[C@@H](n2cnc3c(NOC)nc(C#Cc4ccc(F)cc4)nc32)[C@H](O)[C@@H]1O
stdin: Arrange the 4 compounds by rising Ratio Ki, starting with the smallest. Rank the items, then write their labels in that order.
stdout: d, c, b, a
(d: 9800, c: 16400, b: 29500, a: 61000)
